# credit: paper PMC10397247

Target: T1, 4H626-bH
T1 chain: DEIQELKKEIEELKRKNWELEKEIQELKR
Assay: two-hybrid library CCNG1;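 also: natural log of median RNA to DNA barcode read ratio; higher means stronger binding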
readoutLabel: interaction score

Answered examples (5):
| binder | experimentalValue |
| --- | --- |
| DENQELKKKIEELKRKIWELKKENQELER [4H1899-bH] | -1.98 |
| DKNQELEKENEELKRKIWELEKEIQELKR [4H3298-bH] | -0.173 |
| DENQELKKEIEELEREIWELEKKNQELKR [4H1544-bH] | -0.838 |
| DKNQELEKEIEELKRENWELKKEIQELKR [4H3162-bH] | -1.98 |
| DKNQELEKENEELKREIWELKKKIQELER [4H3277-bH] | -1.06 |

A: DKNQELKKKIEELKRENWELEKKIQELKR [4H3926-bH]
B: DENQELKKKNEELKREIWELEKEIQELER [4H1985-bH]
Which value of interaction score is greater, the one for A or the one for B ? // respond with label for picked entry
A
